Assign Degree of damage to each entry below.
Tested on: Sclerotinia sclerotiorum
procedureDetails: Test for Sclerotinia sclerotiorum-controlling effect on cucumbers
Type: in vivo
measurementParameters: cucumber; 100 ppm active ingredient, 7 ml per pot; 3 days after inoculation

// worked examples, Degree of damage included
>>> reportedresult("CCCCNC(=O)n1c(NC(=O)OC)nc2ccccc21 [reference compound]")
"32%"
>>> reportedresult("CCCCS(=O)(=O)N1CC(=O)N(c2cc(Cl)cc(Cl)c2)C1=O")
"0%"
>>> reportedresult("O=C1CN(S(=O)(=O)CCCCl)C(=O)N1c1cc(Cl)cc(Cl)c1")
"0%"

Hey, quick one: what's Degree of damage for each of these?
1. CCS(=O)(=O)N1CC(=O)N(c2cc(Cl)cc(Cl)c2)C1=O
2. CC(C)S(=O)(=O)N1CC(=O)N(c2cc(Cl)cc(Cl)c2)C1=O
3. CCCS(=O)(=O)N1C(=O)N(c2cc(Cl)cc(Cl)c2)C(=O)C1C (stereo not drawn)
4. C=CCS(=O)(=O)N1CC(=O)N(c2cc(Cl)cc(Cl)c2)C1=O
5. CCCS(=O)(=O)N1CC(=O)N(c2cc(Cl)cc(Cl)c2)C1=O

1: 12%; 2: 0%; 3: 3%; 4: 9%; 5: 0%

# get_value(readout= Degree of damage, system= Sclerotinia sclerotiorum) for CCCS(=O)(=O)N1CC(=O)N(c2cc(Br)cc(Br)c2)C1=O
0%
